SYSTEM TESTED: Serine/threonine-protein kinase pim-2 (Homo sapiens, UniProt Q9P1W9)
Sequence (Q9P1W9 whole entry): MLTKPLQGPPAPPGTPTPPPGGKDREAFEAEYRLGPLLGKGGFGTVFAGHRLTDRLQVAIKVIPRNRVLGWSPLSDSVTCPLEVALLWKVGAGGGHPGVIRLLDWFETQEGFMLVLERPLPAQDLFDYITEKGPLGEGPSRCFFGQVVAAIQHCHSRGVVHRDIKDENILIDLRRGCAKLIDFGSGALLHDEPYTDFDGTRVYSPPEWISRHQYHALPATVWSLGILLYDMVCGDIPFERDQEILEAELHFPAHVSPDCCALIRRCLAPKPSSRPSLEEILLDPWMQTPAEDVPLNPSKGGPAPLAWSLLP
OBSERVATION TYPE: pKd
Reminder that pKd means the negative base-10 logarithm of the concentration expressed in mol/L.

GET /values?readout=pKd&item= Oc1c2ccccc2c2c3c(cccc13)N=N2 [SP-600125]
6.34

====

SYSTEM TESTED: Serine/threonine-protein kinase PAK 1 (Homo sapiens, UniProt Q13153)
Sequence (Q13153 whole entry): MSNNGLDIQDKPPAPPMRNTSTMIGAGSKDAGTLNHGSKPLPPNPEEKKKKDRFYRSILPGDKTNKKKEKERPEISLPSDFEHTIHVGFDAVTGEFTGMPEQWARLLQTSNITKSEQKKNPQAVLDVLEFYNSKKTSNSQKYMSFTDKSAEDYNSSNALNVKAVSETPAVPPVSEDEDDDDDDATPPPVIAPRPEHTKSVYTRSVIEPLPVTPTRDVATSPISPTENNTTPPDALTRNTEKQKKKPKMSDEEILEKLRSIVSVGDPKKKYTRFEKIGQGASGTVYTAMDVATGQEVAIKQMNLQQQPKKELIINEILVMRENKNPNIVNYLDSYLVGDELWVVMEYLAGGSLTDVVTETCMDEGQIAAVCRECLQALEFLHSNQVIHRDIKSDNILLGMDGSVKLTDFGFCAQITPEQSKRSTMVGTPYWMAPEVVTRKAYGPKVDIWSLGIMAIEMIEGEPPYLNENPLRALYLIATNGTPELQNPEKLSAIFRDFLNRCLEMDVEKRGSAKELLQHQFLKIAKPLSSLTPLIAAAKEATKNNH
OBSERVATION TYPE: pKd
Reminder that pKd means the negative base-10 logarithm of the concentration expressed in mol/L.

GET /values?readout=pKd&item= `CCOc1cc2ncc(C#N)c(Nc3ccc(F)c(Cl)c3)c2cc1NC(=O)/C=C/CN(C)C`
5.68
